# assay_details: qHTS assay to test for compound auto fluorescence at 535 nm (green) in HEK293 cell free culture (AID 720682); further: on the % scale 0 is the no-effect control and ±100 the full control effect
# condition_context: cell-free medium, green autofluorescence 485/535 nm, active compounds read high; series mostly up to 91.3 µM
Activity calls are given as the source filed them. The call rests on the fitted dose curve; in most records, active means well fitted curve in the direction sought with a large enough effect in the repeat runs; inconclusive means weak or mixed curves; inactive means flat fitted curve, though single readings scatter.
property_name: activity change

Here is how some molecules turned out for activity change.
molecule: O=C(O)c1ccncc1
property_name: activity change
result: inactive
//
molecule: Cc1c(Cl)cccc1[N+](=O)[O-]
property_name: activity change
result: inactive
//
molecule: CC1=CC(=C(c2ccc(N)cc2)c2ccc(N)cc2)C=CC1=N
property_name: activity change
result: inactive
//
molecule: OCCc1ccncc1
property_name: activity change
result: inactive
//
molecule: CCC[Si](OC)(OC)OC
property_name: activity change
result: inactive

Requested field: activity change. Item: C=CC(C)CCC=C(C)C (stereo not given)
inactive

Requested field: activity change. Item: N#C[C@@H]1CC(F)(F)CN1C(=O)CNC1CC2CCC(C1)N2c1ncccn1 (stereo not given in full)
inactive

Requested field: activity change. Item: CC(C)C[C@H](NC(=O)[C@H](Cc1ccccc1)NC(=O)c1cnccn1)B(O)O
inactive

Requested field: activity change. Item: Cc1ccc(NC=O)c(C)c1
inactive

Requested field: activity change. Item: CCCOC(C)=O
inactive

Requested field: activity change. Item: CCCCCCCCOCCCN
inactive

Requested field: activity change. Item: CC(C)CCCCCOC(=O)CS
inactive

Requested field: activity change. Item: O=C(O)c1cc(C(=O)O)cc([N+](=O)[O-])c1
inactive

Requested field: activity change. Item: CC(C)=CCC[C@H](C)CCO
inactive

Requested field: activity change. Item: Cc1c(Nc2ncccc2C(=O)O)cccc1C(F)(F)F
0.0935% [at 18.6 µM] (inactive)

Requested field: activity change. Item: CC(=O)c1ccc(Cl)c(Cl)c1Cl
inactive

Requested field: activity change. Item: O=C(O)c1cccnc1Nc1cccc(C(F)(F)F)c1
inactive

Requested field: activity change. Item: C[C@H]1C[C@H]2[C@@H]3CCC4=CC(=O)C=C[C@]4(C)[C@@]3(F)[C@@H](O)C[C@]2(C)[C@@]1(O)C(=O)COP(=O)(O)O
inactive

###

# target_or_test_system: Progesterone receptor (Homo sapiens) (UniProt P06401)
# Sequence (P06401 whole entry, looked up): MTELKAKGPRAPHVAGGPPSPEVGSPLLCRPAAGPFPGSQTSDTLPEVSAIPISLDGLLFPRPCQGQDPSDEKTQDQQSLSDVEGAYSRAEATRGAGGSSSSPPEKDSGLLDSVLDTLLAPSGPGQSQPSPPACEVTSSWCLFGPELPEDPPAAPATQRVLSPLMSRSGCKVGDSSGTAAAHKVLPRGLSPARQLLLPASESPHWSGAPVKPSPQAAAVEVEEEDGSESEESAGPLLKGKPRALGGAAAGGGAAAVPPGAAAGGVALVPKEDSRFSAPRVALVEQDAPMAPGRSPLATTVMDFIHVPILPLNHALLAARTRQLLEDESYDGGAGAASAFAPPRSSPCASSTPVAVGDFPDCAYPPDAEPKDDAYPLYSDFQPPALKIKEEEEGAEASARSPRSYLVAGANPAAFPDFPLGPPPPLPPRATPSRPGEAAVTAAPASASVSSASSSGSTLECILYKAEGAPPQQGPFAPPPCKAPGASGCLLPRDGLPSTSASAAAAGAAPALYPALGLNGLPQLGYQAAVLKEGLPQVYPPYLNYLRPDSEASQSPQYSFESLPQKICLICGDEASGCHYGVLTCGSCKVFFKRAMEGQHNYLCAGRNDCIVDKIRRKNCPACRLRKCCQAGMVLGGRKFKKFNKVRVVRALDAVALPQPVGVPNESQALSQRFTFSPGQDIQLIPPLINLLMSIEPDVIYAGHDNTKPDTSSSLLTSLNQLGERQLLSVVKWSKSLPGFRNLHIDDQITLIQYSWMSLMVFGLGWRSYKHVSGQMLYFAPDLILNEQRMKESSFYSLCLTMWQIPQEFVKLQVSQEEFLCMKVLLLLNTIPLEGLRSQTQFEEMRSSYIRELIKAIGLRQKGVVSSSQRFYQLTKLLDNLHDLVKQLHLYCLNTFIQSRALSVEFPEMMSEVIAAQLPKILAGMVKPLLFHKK
# assay_details: qHTS assay to identify small molecule agonists of the progesterone receptor (PR) signaling pathway (AID 1346784); further: on the % scale 0 is the no-effect control and ±100 the full control effect; nearly all actives have a fitted effect of over 30% in size
# condition_context: PR-UAS-bla HEK293T, beta-lactamase FRET ratio, 16 h; series mostly up to 92.4 µM
Inconclusive results are not listed. Calls of active or inactive are those of the source. The call rests on the fitted dose curve.
property_name: outcome

Here is how some compounds turned out for outcome.
compound: CC1(C)CC(O)CC(C)(C)N1[O]
outcome: inactive
--
compound: C=C(C)C(=O)OCCCCCCCCCCOC(=O)C(=C)C
outcome: inactive
--
compound: CC1(C)C(=O)NC(=O)N1CO
outcome: inactive
--
compound: O=C(O)c1c2ccccc2cc2ccccc12
outcome: inactive
--
compound: Cc1ccc(S(=O)(=O)NC(=O)NC2CCCC2)cc1
outcome: inactive

Requested field: outcome. Item: C/C(=C\C(C)CC(C)CC(C)C)C1CC(=O)OC1=O (stereo unspecified)
inactive

Requested field: outcome. Item: Cc1cc(C)n(CO)n1
inactive

Requested field: outcome. Item: CC(C)C[C@H](NC(=O)[C@H](Cc1ccccc1)NC(=O)c1cnccn1)B(O)O
inactive

Requested field: outcome. Item: CC(C)=CCC[C@H](C)CCO
inactive

Requested field: outcome. Item: C/C=C1\[C@H]2C=C(C)C[C@]1(N)c1ccc(=O)[nH]c1C2
inactive

Requested field: outcome. Item: C1CCN(CN2CCCCC2)CC1
inactive
